For each of the molecules below, state its TGI.
system: U251 CNS; test: NCI tumour cell line growth inhibition, 48 h

Use the examples below as a reference point.
> print(dat)
                                   molecule  observed.value
1  C=C1C(=O)O[C@H]2[C@H]1CC/C(COC(=O)/C=C\C(=O)NCc1ccc(Cn3c(=O)sn(CCCC)c3=O)cc1)=C\CC[C@@]1(C)O[C@@H]21          3.2 µM
2  COc1ccc(/C(Cl)=C(\C=O)c2ccc(OC)c(OC)c2)cc1        > 100 µM
3  C=C(C(=O)O)[C@@H]1C[C@@H](OC(C)=O)[C@]2(C)CC/C=C(\C)CCC[C@H](C)[C@H](O)[C@@H]1O2        > 100 µM
4  CCN1CCC(O)(/C=C/c2ccc(C)cc2)C(C(=O)/C=C/c2ccc(C)cc2)C1 (stereo unspecified)         9.24 µM
5                CC1=CCC(C)=Nc2nc3ccccc3n21        > 100 µM

In the following, a different molecule is considered.
Tell me its TGI given CC(=O)O[C@H]1CCC2[C@@H]3CCC4Nc5oncc5C[C@]4(C)C3CC[C@@]21C (stereo partly specified) as the entry.
> 10 µM

###

For each of the molecules below, state its TGI.
tested on: NCI-H522 lung; assay: NCI tumour cell line growth inhibition, 48 h

Use the examples below as a reference point.
> print(dat)
                                   molecule  quantity  observed.value
1  Cn1cc(C2=C(c3cccc(Br)c3)C(=O)NC2=O)c2ccccc21       TGI         > 25 µM
2  CC1COC(C)(C)P(=O)(c2ccccc2)C1 (stereo not given)       TGI        > 100 µM
3  C/C(CC(=O)Nc1cccc(Cl)c1C)=N\NC(=O)c1ccncc1       TGI           55 µM
4  O=C(c1cccs1)N(C(=O)N1CCN(c2ccccc2)CC1)S(=O)(=O)c1ccccc1       TGI         34.2 µM

Print NCI-H522 lung TGI for OCCCNc1nccc(-c2c(-c3ccc(F)cc3)nn3cc(C(F)(F)F)ccc23)n1 .
> 25 µM

###

For each of the molecules below, state its TGI.
tested on: MDA-MB-435; experiment: NCI tumour cell line growth inhibition, 48 h

Use the examples below as a reference point.
> print(dat)
                                   molecule  quantity  observed.value
1  Cn1c(=O)oc2cc(C(O)CN3CCN(Cc4ccccn4)CC3)c(Cl)cc21 (stereo unspecified)       TGI        > 100 µM
2  COc1ccc(OC)c(C(Cc2ccnc3ccccc23)Cc2ccnc3ccccc23)c1       TGI         > 10 µM
3  Cn1cc(C2=C(c3cccc(Br)c3)C(=O)NC2=O)c2ccccc21       TGI         > 25 µM

Could you report TGI for every entry in the following list?
1. C#CC(C)(C)OC(=O)C(=[N+]=[N-])C(C)=O
2. CCCCCC(=O)CCCCCCCC(O)CC(=O)OCC (stereo unspecified)
3. CCn1c(=O)c2c(=O)c3c4c(oc3oc2c2ccccc21)C(=O)c1ccccc1C4=O

> 10 µM
> 100 µM
> 100 µM

This collection of values is drawn from PubChem BioAssay (NCI).
